Data provenance: patent US20220117938A1

Quick reference: IC50 of the listed items.
System: Cells
Experimental Protocol: Cell viability, CTG luminescence, 72 h (Example 7, Experiment 1)
Assay type: cell-based
Applied Conditions: Homo sapiens, MOLT-4, 72 h, MOLT-4
Remember to put the unit after the number in your answer.

Which IC50 value belongs to [N-]=[N+]=CC(=O)CC[C@H](N)C(=O)O [DON, 6-Diazo-5-oxo-L-norleucine, reference compound] ?
2.38 µM

Turning to the following molecule.
Which IC50 value belongs to CC(=O)N[C@@H](Cc1c[nH]c2ccccc12)C(=O)N[C@@H](CCC(=O)C=[N+]=[N-])C(=O)OC(C)C ?
3.03 µM

====

Quick reference: IC50 of the listed items.
System: Ninety four (94) cell lines and PBMC
Experimental Protocol: Cell viability assay, SRB staining, 94 cell lines and PBMC (Example 7, Experiment 2)
Format: cell-based
Applied Conditions: Homo sapiens, TE-671, TE671, muscle
Procedure: Ninety four (94) cell lines were seeded at a density varying from 500 to 7000 cells/well depending on their growth characteristics. PBMC were seeded at the density 50,000-100,000 cells/well. Cells were incubated for 48 h prior to compound treatment. Compound 1 and DON were evaluated at a concertation range of 1 nM up to 100 μM. […] Optical density was measured at 492, 520 and 560 nm using a Deelux-LED96 plate reader (Deelux Labortechnik GmbH, Germany). […]
Express your answer in µM, writing the number without its unit.

Which IC50 value belongs to CC(=O)N[C@@H](Cc1c[nH]c2ccccc12)C(=O)N[C@@H](CCC(=O)C=[N+]=[N-])C(=O)OC(C)C ?
5.97

Turning to the following compound.
Which IC50 value belongs to [N-]=[N+]=CC(=O)CC[C@H](N)C(=O)O [DON, 6-Diazo-5-oxo-L-norleucine, reference compound] ?
5.1

====

System: Cells
Experimental Protocol: Cell viability, CTG luminescence, 72 h (Example 7, Experiment 1)
Format: cell-based
Applied Conditions: Homo sapiens, NCI-H23, 72 h, NCI-H23
Value Kind: IC50 (nM)
Express your answer in nM, writing the number without its unit.

Which IC50 value belongs to CC(=O)N[C@@H](Cc1c[nH]c2ccccc12)C(=O)N[C@@H](CCC(=O)C=[N+]=[N-])C(=O)OC(C)C ?
3530

Which IC50 value belongs to [N-]=[N+]=CC(=O)CC[C@H](N)C(=O)O [DON, 6-Diazo-5-oxo-L-norleucine, reference compound] ?
1660

====

System: Ninety four (94) cell lines and PBMC
Experimental Protocol: Cell viability assay, SRB staining, 94 cell lines and PBMC (Example 7, Experiment 2)
Assay type: cell-based
Applied Conditions: T24, bladder
Method: Ninety four (94) cell lines were seeded at a density varying from 500 to 7000 cells/well depending on their growth characteristics. PBMC were seeded at the density 50,000-100,000 cells/well. Cells were incubated for 48 h prior to compound treatment. Compound 1 and DON were evaluated at a concertation range of 1 nM up to 100 μM. […] Optical density was measured at 492, 520 and 560 nm using a Deelux-LED96 plate reader (Deelux Labortechnik GmbH, Germany). […]
Value Kind: IC50 (µM)
Express your answer in µM, writing the number without its unit.

Form entry - test system: Ninety four (94) cell lines and PBMC; read-out: IC50; compound: CC(=O)N[C@@H](Cc1c[nH]c2ccccc12)C(=O)N[C@@H](CCC(=O)C=[N+]=[N-])C(=O)OC(C)C [Compound 1]
4.95

***
Form entry - test system: Ninety four (94) cell lines and PBMC; read-out: IC50; compound: [N-]=[N+]=CC(=O)CC[C@H](N)C(=O)O [DON, 6-Diazo-5-oxo-L-norleucine, reference compound]
4
